Taken from BigSolDB 2.1.

Details: in ethanol, 293.15 K
property: solubility (mole fraction)

>>> numeric_value("NC(=O)c1ccccc1")
0.0567

* * *

Settings: in methanol, 288.15 K
property: solubility (mole fraction)

>>> numeric_value("NC(=O)c1ccccc1")
0.0692

* * *

Conditions: in n-propanol, 313.15 K
property: solubility (mole fraction)

>>> numeric_value("NC(=O)c1ccccc1")
0.0892

* * *

Conditions: in ethyl acetate, 298.15 K
property: solubility (mole fraction)

>>> numeric_value("NC(=O)c1ccccc1")
0.0325

* * *

Settings: in methanol, 313.15 K
property: solubility (mole fraction)

>>> numeric_value("NC(=O)c1ccccc1")
0.138
